Biological target: T1, human LRRC15 extracellular domain with C-terminal His tag (human, UniProt Q8TF66 22-538)
T1 construct: Recombinant, made in HEK293; the entry holds the extracellular domain and the His tag; SPR analyte; also called TPP-1545; hLRRC15 CT-His
T1 sequence: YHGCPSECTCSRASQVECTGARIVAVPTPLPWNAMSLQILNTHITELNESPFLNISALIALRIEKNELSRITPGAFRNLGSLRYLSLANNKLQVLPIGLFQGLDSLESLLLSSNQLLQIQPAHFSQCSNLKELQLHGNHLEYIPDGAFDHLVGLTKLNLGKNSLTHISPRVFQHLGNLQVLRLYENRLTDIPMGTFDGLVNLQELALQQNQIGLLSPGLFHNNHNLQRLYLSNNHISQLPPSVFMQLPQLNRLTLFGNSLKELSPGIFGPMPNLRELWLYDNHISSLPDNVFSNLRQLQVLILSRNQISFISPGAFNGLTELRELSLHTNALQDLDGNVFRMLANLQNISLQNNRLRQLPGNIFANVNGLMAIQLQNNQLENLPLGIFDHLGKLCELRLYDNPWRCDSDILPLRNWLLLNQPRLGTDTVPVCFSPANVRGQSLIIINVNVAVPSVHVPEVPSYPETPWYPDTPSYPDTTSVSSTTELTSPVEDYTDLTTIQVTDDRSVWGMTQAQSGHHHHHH
Assay: SPR Biacore T200, antibody captured, LRRC15 analyte, 25°C
measuredProperty: pKd
Lab note — pKd values are minus log10 of concentrations in M.

binder | measuredProperty | observedMeasurement
TPP-1633 (antibody, human IgG1, kappa, V domains shown, also called 060E-M016-G14-hIgG1) VH: EVQLLESGGGLVQPGGSLRLSCAASGFTFSGYMMQWVRQAPGKGLEWVSGIYPSGGYTNYADSVKGRFTISRDNSKNTLYLQMNSLRAEDTATYYCAREKASDLSGSYSEALDYWGQGTLVTVSS VL: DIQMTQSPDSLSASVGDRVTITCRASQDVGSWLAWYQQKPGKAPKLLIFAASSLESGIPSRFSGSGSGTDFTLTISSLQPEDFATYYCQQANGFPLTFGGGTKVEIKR | pKd | 6.80

Request the reported pKd associated with TPP-17421 (antibody, human IgG1, kappa, V domains shown, also called 438H-M306-C11-hIgG1Kappa) VH: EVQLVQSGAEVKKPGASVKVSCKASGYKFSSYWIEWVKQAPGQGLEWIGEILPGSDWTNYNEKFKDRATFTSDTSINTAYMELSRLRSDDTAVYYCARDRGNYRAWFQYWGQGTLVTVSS VL: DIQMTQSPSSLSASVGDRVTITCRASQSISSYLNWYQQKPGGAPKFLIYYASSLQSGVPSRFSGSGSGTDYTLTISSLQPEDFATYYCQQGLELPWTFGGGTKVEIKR
9.06

Request the reported pKd associated with TPP-17074 (antibody, human IgG1, kappa, V domains shown, also called 438H-M161-K22-hIgG1) VH: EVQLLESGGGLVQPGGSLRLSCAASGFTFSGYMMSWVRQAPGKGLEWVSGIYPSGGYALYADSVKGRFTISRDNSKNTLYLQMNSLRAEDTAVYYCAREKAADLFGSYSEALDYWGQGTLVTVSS VL: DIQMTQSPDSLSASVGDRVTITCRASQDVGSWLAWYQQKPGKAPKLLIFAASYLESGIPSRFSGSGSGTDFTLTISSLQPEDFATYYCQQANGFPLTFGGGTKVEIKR
9.66
